# MEASURED_ON: S1P1 receptor (Homo sapiens, UniProt P21453)
# Sequence (P21453 whole entry): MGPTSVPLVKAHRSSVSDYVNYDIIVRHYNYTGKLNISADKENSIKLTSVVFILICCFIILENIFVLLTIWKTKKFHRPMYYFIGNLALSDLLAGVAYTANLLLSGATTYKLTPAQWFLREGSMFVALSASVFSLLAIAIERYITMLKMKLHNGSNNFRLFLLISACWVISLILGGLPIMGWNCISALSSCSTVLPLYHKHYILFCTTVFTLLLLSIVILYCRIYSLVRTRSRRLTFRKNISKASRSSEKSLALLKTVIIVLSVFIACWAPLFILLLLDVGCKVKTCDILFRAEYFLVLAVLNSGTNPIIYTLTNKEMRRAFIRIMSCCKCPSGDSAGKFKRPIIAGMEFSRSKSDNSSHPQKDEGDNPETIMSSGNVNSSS
# PROCEDURE_DETAILS: 35S-GTPγS binding, membranes from CHO cells expressing S1P1
# CONDITION_SUMMARY: CHO cell membranes expressing S1P1
Structures can show the parent of a compound that is named as a salt.
Label key: Condition met means EC50 under 0.2 µM; Condition not met means EC50 of 0.2 µM or more.

>>> print(df.to_string())
                                    compound     assigned_label
 0  Fc1ccc(-c2noc(-c3nnn(-c4ccccc4F)c3-c3ccncc3)n2)cc1 [Example 96]      Condition met
 1  NCc1cccc(-c2noc(-c3nnn(-c4ccccc4F)c3-c3ccncc3)n2)c1 [Example 125, hydrochloride]  Condition not met
 2  COC(=O)c1cccc(-c2noc(-c3nnn(-c4ccccc4F)c3-c3ccccc3)n2)c1 [Example 20]      Condition met
 3  OCCNCc1cccc(-c2noc(-c3nnn(-c4ccccc4F)c3-c3ccncc3)n2)c1 [Example 132]  Condition not met
 4  Fc1ccccc1-n1nnc(-c2nc(-c3ccc4[nH]ncc4c3)no2)c1-c1ccncc1 [Example 116]      Condition met
 5  COc1cc(CCC(=O)O)ccc1-c1noc(-c2nnn(-c3ccccc3F)c2-c2ccccc2)n1 [Example 29]  Condition not met
 6  COc1ccc(-c2noc(-c3nnn(-c4ccccc4F)c3-c3ccccn3)n2)cc1 [Example 57]  Condition not met
 7  NCc1ccc(-c2noc(-c3nnn(-c4ccccc4F)c3-c3ccncc3)n2)cc1 [Example 80, hydrochloride]      Condition met
 8  CC(=O)N1CCC(c2noc(-c3nnn(-c4ccccc4F)c3-c3ccncc3)n2)CC1 [Example 55]  Condition not met
 9  Fc1cc(F)cc(-c2noc(-c3nnn(-c4ccccc4F)c3-c3ccncc3)n2)c1 [Example 102]      Condition met
10  Fc1ccccc1-n1nnc(-c2nc(-c3ccc(Cn4ccnc4)cc3)no2)c1-c1ccncc1 [Example 170]      Condition met
11  Oc1ccc(-c2noc(-c3nnn(-c4ccccc4F)c3-c3ccncc3)n2)cc1 [Example 64]      Condition met
12  Fc1ccccc1-n1nnc(-c2nc(-c3ccc(CN4CC[C@@H](F)C4)cc3)no2)c1-c1ccncc1 [Example 160]      Condition met
13  O=C(O)c1ccc(-c2noc(-c3nnn(-c4ccccc4F)c3-c3ccccc3)n2)cc1 [Example 24]  Condition not met
14  COCc1c(-c2nc(-c3ccc(F)cc3F)no2)nnn1-c1ccccc1F [Example 8]  Condition not met
15  Oc1cccc(-c2noc(-c3nnn(-c4ccccc4F)c3-c3ccncc3)n2)c1 [Example 124]      Condition met

====

# MEASURED_ON: UniProt Q99500
# Sequence (Q99500 whole entry): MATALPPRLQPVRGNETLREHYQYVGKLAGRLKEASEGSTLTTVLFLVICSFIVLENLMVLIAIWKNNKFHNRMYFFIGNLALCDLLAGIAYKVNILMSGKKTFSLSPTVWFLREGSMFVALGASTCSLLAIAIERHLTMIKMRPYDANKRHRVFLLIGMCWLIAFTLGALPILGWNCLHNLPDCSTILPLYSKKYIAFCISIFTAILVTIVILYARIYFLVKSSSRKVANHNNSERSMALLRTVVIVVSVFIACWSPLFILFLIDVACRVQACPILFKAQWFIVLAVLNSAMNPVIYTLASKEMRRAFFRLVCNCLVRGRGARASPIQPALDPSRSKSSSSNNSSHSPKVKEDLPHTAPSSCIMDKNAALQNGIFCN
# PROCEDURE_DETAILS: 35S-GTPγS binding, membranes from CHO cells expressing S1P3
# CONDITION_SUMMARY: CHO cell membranes expressing S1P3
Counter-ions that a name gives are not always drawn.
Reported log10(EC50) by item:
EXPERIMENTAL_READOUT: log10(EC50) (log10 of the value in nM)

In [3]: df
Out[3]:
                                    molecule     measured_on  experimental_readout  quantitative_readout
 0  COC(=O)c1cccc(-c2noc(-c3nnn(-c4ccccc4F)c3-c3ccccc3)n2)c1  UniProt Q99500           log10(EC50)                  3.93
 1  Fc1ccc(F)c(-c2noc(-c3nnn(-c4ccccc4F)c3-c3ccccn3)n2)c1  UniProt Q99500           log10(EC50)                  3.86
 2  Oc1ccc(-c2noc(-c3nnn(-c4ccccc4F)c3-c3ccccc3)n2)c(F)c1  UniProt Q99500           log10(EC50)                  2.34
 3  Fc1ccccc1-n1nnc(-c2nc(-c3cccc(F)c3F)no2)c1-c1ccncc1  UniProt Q99500           log10(EC50)                  2.33
 4  OC1CCN(Cc2ccc(-c3noc(-c4nnn(-c5ccccc5F)c4-c4ccncc4)n3)cc2)C1 (stereo not shown)  UniProt Q99500           log10(EC50)                  2.92
 5  COc1cccc(-c2noc(-c3nnn(-c4ccccc4F)c3-c3ccncc3)n2)c1  UniProt Q99500           log10(EC50)                  2.87
 6  Fc1cccc(-c2noc(-c3nnn(-c4ccccc4F)c3-c3ccncc3)n2)c1  UniProt Q99500           log10(EC50)                  2.38
 7  O=C(O)C1CN(Cc2ccc(-c3noc(-c4nnn(-c5ccccc5F)c4-c4ccncc4)n3)cc2)C1  UniProt Q99500           log10(EC50)                  3.14
 8  O=C(O)CCNCc1ccc(-c2noc(-c3nnn(-c4ccccc4F)c3-c3ccncc3)n2)cc1  UniProt Q99500           log10(EC50)                  2.50
 9  CNCc1ccc(-c2noc(-c3nnn(-c4ccccc4F)c3-c3ccncc3)n2)cc1  UniProt Q99500           log10(EC50)                  3.66
10  O=C(O)C1CCN(Cc2ccc(-c3noc(-c4nnn(-c5ccccc5F)c4-c4ccncc4)n3)cc2)CC1  UniProt Q99500           log10(EC50)                  3.40
11  COCCNCc1ccc(-c2noc(-c3nnn(-c4ccccc4F)c3-c3ccncc3)n2)cc1  UniProt Q99500           log10(EC50)                  3.82
12  CCCCc1c(-c2nc(-c3ccccc3F)no2)nnn1-c1ccccc1F  UniProt Q99500           log10(EC50)                  3.87
13  COCCc1c(-c2nc(-c3ccccc3F)no2)nnn1-c1ccccc1F  UniProt Q99500           log10(EC50)                  4.12
14  Fc1cc(F)cc(-c2noc(-c3nnn(-c4ccccc4F)c3-c3ccncc3)n2)c1  UniProt Q99500           log10(EC50)                  2.17
15  Fc1ccc(F)c(-c2noc(-c3nnn(-c4ccccc4F)c3-c3ccncc3)n2)c1  UniProt Q99500           log10(EC50)                  3.25
16  Fc1ccccc1-c1noc(-c2nnn(-c3ccccc3F)c2-c2ccccn2)n1  UniProt Q99500           log10(EC50)                  3.46
17  Fc1ccccc1-c1noc(-c2nnn(-c3ccccc3F)c2-c2ccccc2)n1  UniProt Q99500           log10(EC50)                  2.69
18  Fc1ccccc1-n1nnc(-c2nc(-c3ccccc3)no2)c1-c1ccccc1  UniProt Q99500           log10(EC50)                  2.60
19  NCc1ccc(-c2noc(-c3nnn(-c4ccccc4F)c3-c3ccncc3)n2)cc1 [Example 80, hydrochloride]  UniProt Q99500           log10(EC50)                  3.36
20  Fc1ccc(F)c(-c2noc(-c3nnn(-c4ccccc4F)c3-c3ccccc3)n2)c1  UniProt Q99500           log10(EC50)                  4.15
